system: MOLT-4; assay: NCI-60 anticancer screen (SRB; single dose and five doses); details: Homo sapiens, MOLT-4
Readings of GI50 for the listed compounds
Please give a number only; it is taken to be in µM.

Worked set:
Tell me the measured GI50 of `Cc1[nH]c(=S)sc1C(=O)/C=C/c1cccc([N+](=O)[O-])c1` , please.
3.47

Tell me the measured GI50 of `COc1cc(/C=C/C(=O)c2sc(=S)[nH]c2C)cc(OC)c1OC` , please.
2.88

Tell me the measured GI50 of `Cc1[nH]c(=S)sc1C(=O)/C=C/c1ccc(Cl)cc1` , please.
14.5

Tell me the measured GI50 of `Cc1[nH]c(=S)sc1C(=O)/C=C/c1ccc([N+](=O)[O-])cc1` , please.
3.79

Tell me the measured GI50 of `Cc1[nH]c(=S)sc1C(=O)/C=C/c1cccc(Cl)c1` , please.
2.82

***
Tell me the measured GI50 of `Cc1[nH]c(=S)sc1C(=O)/C=C/c1ccc(F)cc1` , please.
16.7

Tell me the measured GI50 of `Cc1[nH]c(=S)sc1C(=O)/C=C/c1ccc(Br)cc1` , please.
3.57

----------
Readings of CC50 for the listed compounds
test system: UACC-257; assay: NCI-60 anticancer screen (SRB; single dose and five doses); settings: Homo sapiens, UACC-257, read-out: LC50
Please give a number only; it is taken to be in µM.

API: value(readout= CC50, system= UACC-257, query= Cc1[nH]c(=S)sc1C(=O)/C=C/c1ccc([N+](=O)[O-])cc1 [2i] )
61.4

API: value(readout= CC50, system= UACC-257, query= Cc1[nH]c(=S)sc1C(=O)/C=C/c1cccc([N+](=O)[O-])c1 [2h] )
38

API: value(readout= CC50, system= UACC-257, query= Cc1[nH]c(=S)sc1C(=O)/C=C/c1ccc(Cl)cc1 [2f] )
56.2

***
API: value(readout= CC50, system= UACC-257, query= COc1cc(/C=C/C(=O)c2sc(=S)[nH]c2C)cc(OC)c1OC [2p] )
75.9

API: value(readout= CC50, system= UACC-257, query= Cc1[nH]c(=S)sc1C(=O)/C=C/c1ccc(Br)cc1 [2g] )
51.9

API: value(readout= CC50, system= UACC-257, query= Cc1[nH]c(=S)sc1C(=O)/C=C/c1ccc(F)cc1 [2c] )
56.6

API: value(readout= CC50, system= UACC-257, query= Cc1[nH]c(=S)sc1C(=O)/C=C/c1cccc(Cl)c1 [2e] )
63.1

----------
test system: 786-0; experiment: NCI-60 anticancer screen (SRB; single dose and five doses); details: Homo sapiens, 786-0
Readings of IC50 for the listed compounds
Please give a number only; it is taken to be in µM.

Worked set:
API: value(readout= IC50, system= 786-0, query= `Cc1[nH]c(=S)sc1C(=O)/C=C/c1ccc(Cl)cc1` )
7.76

API: value(readout= IC50, system= 786-0, query= `COc1cc(/C=C/C(=O)c2sc(=S)[nH]c2C)cc(OC)c1OC` )
6.61

API: value(readout= IC50, system= 786-0, query= `Cc1[nH]c(=S)sc1C(=O)/C=C/c1cccc(Cl)c1` )
4.07

# input for lookup
API: value(readout= IC50, system= 786-0, query= `Cc1[nH]c(=S)sc1C(=O)/C=C/c1cccc([N+](=O)[O-])c1` )
6.31
